# ASSAY TARGET: CXCR4 receptor (Homo sapiens, UniProt P61073)
# Construct: expressed in transfected cells; host or cells: HEK-293 cells (stably expressing human macrophage scavenging receptor) transduced with human CXCR4 BacMam and Gqi5 BacMam
# Sequence (P61073 whole entry): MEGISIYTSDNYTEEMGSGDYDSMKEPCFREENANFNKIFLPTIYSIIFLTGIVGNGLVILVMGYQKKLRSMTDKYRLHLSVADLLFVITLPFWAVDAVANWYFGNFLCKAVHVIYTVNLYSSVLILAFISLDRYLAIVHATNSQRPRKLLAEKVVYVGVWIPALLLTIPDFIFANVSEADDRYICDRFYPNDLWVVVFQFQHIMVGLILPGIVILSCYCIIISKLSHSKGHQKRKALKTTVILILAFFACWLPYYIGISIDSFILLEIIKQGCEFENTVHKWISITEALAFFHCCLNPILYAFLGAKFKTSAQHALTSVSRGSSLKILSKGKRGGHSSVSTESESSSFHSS
# EXPERIMENT SUMMARY: Functional FLIPR assay (block of SDF-1 alpha induced [Ca2+]i change)
# Assay type: cell-based
# CONDITION DETAILS: HEK-293 cells with human CXCR4 BacMam and Gqi5 BacMam; antagonism of SDF-1 alpha; read-out: Functional assay (pIC50) (converted)
Could you mark each record criterion met if its IC50 falls strictly under 30 nM, and criterion not met if it equals or exceeds it?

INSERT INTO measurements (molecule, assay_target, cat) VALUES
  ('NCCCCN(Cc1cn2c(F)cccc2n1)C1CCCc2cccnc21 (centres unmarked) [Example 14]', 'CXCR4 receptor (Homo sapiens, UniProt P61073)', 'criterion not met'),
  ('N#Cc1ccc2nc(CN(CCCCN)C3CCCc4cccnc43)cn2c1 (centres unmarked) [Example 9]', 'CXCR4 receptor (Homo sapiens, UniProt P61073)', 'criterion not met'),
  ('NCCCCN(Cc1cn2cc(C(F)(F)F)ccc2n1)C1CCCc2cccnc21 (centres unmarked) [Example 7]', 'CXCR4 receptor (Homo sapiens, UniProt P61073)', 'criterion not met'),
  ('NCCCCN(Cc1cn2c(C(F)(F)F)cccc2n1)C1CCCc2cccnc21 (centres unmarked) [Example 8]', 'CXCR4 receptor (Homo sapiens, UniProt P61073)', 'criterion met'),
  ('NCCCCN(Cc1cn2c(N3CCOCC3)cccc2n1)C1CCCc2cccnc21 (centres unmarked) [Example 23]', 'CXCR4 receptor (Homo sapiens, UniProt P61073)', 'criterion not met'),
  ('Cc1ccc2nc(CN(CCCCN)C3CCCc4cccnc43)cn2c1 (centres unmarked) [Example 4]', 'CXCR4 receptor (Homo sapiens, UniProt P61073)', 'criterion not met'),
  ('Cc1cccn2cc(CN(CCCCN)C3CCCc4cccnc43)nc12 (centres unmarked) [Example 2]', 'CXCR4 receptor (Homo sapiens, UniProt P61073)', 'criterion not met'),
  ('Cc1ccn2cc(CN(CCCCN)C3CCCc4cccnc43)nc2c1 (centres unmarked) [Example 3]', 'CXCR4 receptor (Homo sapiens, UniProt P61073)', 'criterion not met'),
  ('NCCCCN(Cc1cn2c(N3CCNCC3)cccc2n1)C1CCCc2cccnc21 (centres unmarked) [Example 22]', 'CXCR4 receptor (Homo sapiens, UniProt P61073)', 'criterion met'),
  ('Cc1cc(Br)cn2cc(CN(CCCCN)C3CCCc4cccnc43)nc12 (centres unmarked) [Example 19]', 'CXCR4 receptor (Homo sapiens, UniProt P61073)', 'criterion not met'),
  ('NCCCCN(Cc1cn2cc(C(F)(F)F)cc(Cl)c2n1)C1CCCc2cccnc21 (centres unmarked) [Example 17]', 'CXCR4 receptor (Homo sapiens, UniProt P61073)', 'criterion not met'),
  ('Cc1cc(Br)c2nc(CN(CCCCN)C3CCCc4cccnc43)cn2c1 (centres unmarked) [Example 20]', 'CXCR4 receptor (Homo sapiens, UniProt P61073)', 'criterion not met'),
  ('Cc1cccc2nc(CN(CCCCN)C3CCCc4cccnc43)cn12 (centres unmarked) [Example 5]', 'CXCR4 receptor (Homo sapiens, UniProt P61073)', 'criterion met'),
  ('NCCCCN(Cc1cn2cc(Cl)cc(Cl)c2n1)C1CCCc2cccnc21 (centres unmarked) [Example 16]', 'CXCR4 receptor (Homo sapiens, UniProt P61073)', 'criterion not met'),
  ('NCCCCN(Cc1cn2c(N3CCCC3)cccc2n1)C1CCCc2cccnc21 (centres unmarked) [Example 21]', 'CXCR4 receptor (Homo sapiens, UniProt P61073)', 'criterion met'),
  ('NCCCCN(Cc1cn2c(N)cccc2n1)C1CCCc2cccnc21 (centres unmarked) [Example 26]', 'CXCR4 receptor (Homo sapiens, UniProt P61073)', 'criterion met');

###

# Tested on: HIV-1 IIIB strain, T-tropic (CXCR4 utilizing)
# EXPERIMENT SUMMARY: HOS HIV-1 infectivity assay
# Type: cell-based
# CONDITION DETAILS: Human immunodeficiency virus 1, IIIB; HOS HIV anti-infectivity assay; strain not named in Table 2; read-out: Activity Level
TEST READOUT: IC50

INSERT INTO measurements (molecule, measurement) VALUES
  ('NCCCCCN(Cc1cn2ccccc2n1)C1CCCc2cccnc21 (centres unmarked)', '100 to 500 nM'),
  ('Cc1cc(Br)c2nc(CN(CCCCN)C3CCCc4cccnc43)cn2c1 (centres unmarked)', '100 to 500 nM'),
  ('CN1CCN(c2cccc3nc(CN(Cc4cccnc4)[C@H]4CCCc5cccnc54)c(CO)n23)CC1', '< 100 nM'),
  ('NC1CCC(N(Cc2cn3ccccc3n2)C2CCCc3cccnc32)CC1 (centres unmarked)', '100 to 500 nM'),
  ('NCCCCN(Cc1nc2ccccn2c1Br)C1CCCc2cccnc21 (centres unmarked)', '< 100 nM');

###

# System: HIV-1 IIIB strain, T-tropic (CXCR4 utilizing)
# EXPERIMENT SUMMARY: HOS HIV-1 infectivity assay
# Type: cell-based
# CONDITION DETAILS: Human immunodeficiency virus 1, IIIB; HOS HIV anti-infectivity assay; strain not named in Table 2; read-out: Activity Level
TEST READOUT: IC50

INSERT INTO results (compound, test_readout, measurement) VALUES
  ('NCCCCN(Cc1cn2ccccc2n1)C1CCCc2cccnc21 (centres unmarked)', 'IC50', '< 100 nM'),
  ('Cc1ccn2cc(CN(CCCCN)C3CCCc4cccnc43)nc2c1 (centres unmarked)', 'IC50', '100 to 500 nM'),
  ('COc1cccc2nc(CN(CCCCN)C3CCCc4cccnc43)cn12 (centres unmarked)', 'IC50', '< 100 nM'),
  ('Cc1cccc2nc(CN(CCCCN)C3CCCc4cccnc43)cn12 (centres unmarked)', 'IC50', '< 100 nM'),
  ('NCCCCN(Cc1cn2ccc(C(F)(F)F)cc2n1)C1CCCc2cccnc21 (centres unmarked)', 'IC50', '500 to 10000 nM');

Sourced from patent US20080171740A1
